- PROTOCOL_NOTES: PK in mouse
- EXPERIMENTAL_PARAMETERS: in vivo, IV 2 mg/kg
VALUE_KIND: clearance (mL/min/kg)

> print(dat)
                            compound  value.kind  unit.text  measured.value
1  CCC(C)(C)C(=O)N(O)Cc1cc(F)cc(F)c1   clearance  mL/min/kg            68.2

A. CCC(C)(C)C(=O)N(O)Cc1ccccc1 [Compound 92, reference compound]
B. CCC(C)(C)C(=O)N(O)Cc1ccc(F)cc1
// select label with min value of measured clearance from [ A , B ] Response format: the label of the selected entry.
B

====

- PROTOCOL_NOTES: PK in dog
- EXPERIMENTAL_PARAMETERS: in vivo, IV 5 mg/kg, read-out: Vdss
VALUE_KIND: Vd (L/kg)
State the answer as a number, implicitly in L/kg.

Give Vd for the following compound: CCC(C)(C)C(=O)N(O)Cc1ccc(F)cc1 [SIR1-181]
1.8

====

- PROTOCOL_NOTES: Liver microsome stability, rat
- Format: in vitro ADME
- EXPERIMENTAL_PARAMETERS: liver microsomes, comparison table with WO2016/101885 compounds, read-out: Rat Liver Microsome T1/2
VALUE_KIND: half-life (min)

> print(dat)
                                   compound  value.kind  unit.text  measured.value
1  CCC(C)(C)C(=O)N(O)Cc1ccccc1 [Compound 92, reference compound]   half-life        min              25
2  CCC(C)(C)C(=O)N(O)Cc1ccc(F)cc1 [SIR1-181]   half-life        min              37
3  CCC(C)(C)C(=O)N(O)Cc1ccc(F)c(F)c1 [SIR1-180]   half-life        min              29

====

- PROTOCOL_NOTES: PK in rat
- Design: species or system SD rat
- EXPERIMENTAL_PARAMETERS: Sprague-Dawley, in vivo; SD rat, PO 10 mg/kg
VALUE_KIND: AUC (µg·h/mL)

A. CCC(C)(C)C(=O)N(O)Cc1ccc(Cl)cc1
B. [2H]CC([2H])C(C)(C)C(=O)N(O)Cc1ccccc1 (stereo not shown)
C. [2H]C([2H])C([2H])([2H])C(C)(C)C(=O)N(O)Cc1ccccc1
D. CCC(C)(C)C(=O)N(O)Cc1ccccc1 [Compound 92, reference compound]
Sort by AUC with smallest numbers at the start of the list. Reply with the labels, ordered as the question asks.
D, B, C, A
(D: 0.0299 µg·h/mL, B: 0.0786 µg·h/mL, C: 0.318 µg·h/mL, A: 0.923 µg·h/mL)

====

- PROTOCOL_NOTES: PK in dog
- EXPERIMENTAL_PARAMETERS: in vivo, PO 10 mg/kg
VALUE_KIND: bioavailability (%)

> print(dat)
                                   molecule       value.kind  measured.value
1         CCC(C)(C)C(=O)N(O)Cc1cc(F)cc(F)c1  bioavailability            14.9
2            CCC(C)(C)C(=O)N(O)Cc1ccc(F)cc1  bioavailability             2.5
3  CCC(C)(C)C(=O)N(O)Cc1ccccc1 [Compound 92, reference compound]  bioavailability            1.95

====

- PROTOCOL_NOTES: PK in rat
- Parameters: species or system SD rat
- EXPERIMENTAL_PARAMETERS: Sprague-Dawley, in vivo; Rat, PO 60 mg/kg
VALUE_KIND: AUC(0-inf) (ng·h/mL)
State the answer as a number, implicitly in ng·h/mL.

Give AUC(0-inf) for the following molecule: CCC(C)(C)C(=O)N(O)Cc1cc(F)cc(F)c1 [Compound 13]
7520

====

- PROTOCOL_NOTES: Hepatocyte stability, rat
- Type: in vitro ADME
- EXPERIMENTAL_PARAMETERS: rat, hepatocytes, Hepatocyte stability; read-out: Rat T1/2
VALUE_KIND: half-life (min)

> print(dat)
                            compound  value.kind  unit.text  measured.value
1  CCC(C)(C)C(=O)N(O)Cc1cc(F)cc(F)c1   half-life        min              28

a. CCC(C)(C)C(=O)N(O)Cc1ccccc1 [Compound 92, reference compound]
b. [2H]CC([2H])C(C)(C)C(=O)N(O)Cc1cc(F)cc(F)c1 (stereo not drawn)
Recorded half-life values differ for a and b ; which one is higher? Response format: the label of the selected entry.
b

====

- PROTOCOL_NOTES: PK in mouse
- EXPERIMENTAL_PARAMETERS: in vivo, IV 2 mg/kg
VALUE_KIND: half-life (min)

> print(dat)
                            compound  measured.value
1  CCC(C)(C)C(=O)N(O)Cc1cc(F)cc(F)c1            17.4

I. CCC(C)(C)C(=O)N(O)Cc1ccc(F)cc1
II. CCC(C)(C)C(=O)N(O)Cc1ccccc1 [Compound 92, reference compound]
Recorded half-life values differ for I and II ; which one is higher? Response format: the label of the selected entry.
II

====

- PROTOCOL_NOTES: Hepatocyte stability, dog
- Format: in vitro ADME
- EXPERIMENTAL_PARAMETERS: dog, hepatocytes, Hepatocyte Stability, comparison table; read-out: Dog T1/2
VALUE_KIND: half-life (min)
State the answer as a number, implicitly in min.

> print(dat)
                                   compound  measured.value
1  CCC(C)(C)C(=O)N(O)Cc1cc(F)cc(F)c1 [Compound 13]              13

Moving on to the next compound.
Give half-life for the following compound: CCC(C)(C)C(=O)N(O)Cc1ccccc1 [Compound 92, reference compound]
14

====

- PROTOCOL_NOTES: PK in rat
- Design: species or system SD rat
- EXPERIMENTAL_PARAMETERS: Sprague-Dawley, in vivo; Rat, PO 60 mg/kg
VALUE_KIND: Cmax (ng/mL)
State the answer as a number, implicitly in ng/mL.

Give Cmax for the following molecule: CCC(C)(C)C(=O)N(O)Cc1cc(F)cc(F)c1 [Compound 13]
4910

====

- PROTOCOL_NOTES: PK in mouse
- EXPERIMENTAL_PARAMETERS: in vivo, PO 10 mg/kg
VALUE_KIND: AUC(0-inf) (ng·h/mL)

a. CCC(C)(C)C(=O)N(O)Cc1ccccc1 [Compound 92, reference compound]
b. CCC(C)(C)C(=O)N(O)Cc1ccc(F)cc1
Recorded AUC(0-inf) values differ for a and b ; which one is higher? Response format: the label of the selected entry.
b

====

- PROTOCOL_NOTES: PK in monkey
- EXPERIMENTAL_PARAMETERS: in vivo, PO 10 mg/kg
VALUE_KIND: AUC(0-inf) (ng·h/mL)
State the answer as a number, implicitly in ng·h/mL.

Give AUC(0-inf) for the following compound: CCC(C)(C)C(=O)N(O)Cc1ccccc1 [Compound 92, reference compound]
374

====

- PROTOCOL_NOTES: PK in monkey
- EXPERIMENTAL_PARAMETERS: in vivo, PO 200 mg/kg
VALUE_KIND: AUC(0-inf) (ng·h/mL)
State the answer as a number, implicitly in ng·h/mL.

Give AUC(0-inf) for the following compound: `CCC(C)(C)C(=O)N(O)Cc1cc(F)cc(F)c1`
87200

====

- PROTOCOL_NOTES: PK in dog
- EXPERIMENTAL_PARAMETERS: in vivo, PO 60 mg/kg
VALUE_KIND: half-life (h)
State the answer as a number, implicitly in h.

Give half-life for the following molecule: CCC(C)(C)C(=O)N(O)Cc1cc(F)cc(F)c1 [Compound 13]
5.65

====

- PROTOCOL_NOTES: PK in dog
- EXPERIMENTAL_PARAMETERS: in vivo, IV 5 mg/kg
VALUE_KIND: clearance (mL/min/kg)
State the answer as a number, implicitly in mL/min/kg.

Give clearance for the following compound: `CCC(C)(C)C(=O)N(O)Cc1ccc(F)cc1`
25.9

====

half-life overview
- PROTOCOL_NOTES: Hepatocyte stability, human
- Type: in vitro ADME
- EXPERIMENTAL_PARAMETERS: human, hepatocytes, Hepatocyte Stability, comparison table; read-out: Human T1/2
State the answer as a number, implicitly in h.

> print(dat)
                            compound  value.kind  measured.value
1  CCC(C)(C)C(=O)N(O)Cc1cc(F)cc(F)c1   half-life            2.53

Give half-life for the following compound: CCC(C)(C)C(=O)N(O)Cc1ccccc1 [Compound 92, reference compound]
1.22
